Catalogue of compounds with associated pIC50
target: α4β7 (Homo sapiens, UniProt P13612+P26010)
Construct: endogenous in cells; host or cells: RPMI 8866 cells
Sequence (P13612 34-1032): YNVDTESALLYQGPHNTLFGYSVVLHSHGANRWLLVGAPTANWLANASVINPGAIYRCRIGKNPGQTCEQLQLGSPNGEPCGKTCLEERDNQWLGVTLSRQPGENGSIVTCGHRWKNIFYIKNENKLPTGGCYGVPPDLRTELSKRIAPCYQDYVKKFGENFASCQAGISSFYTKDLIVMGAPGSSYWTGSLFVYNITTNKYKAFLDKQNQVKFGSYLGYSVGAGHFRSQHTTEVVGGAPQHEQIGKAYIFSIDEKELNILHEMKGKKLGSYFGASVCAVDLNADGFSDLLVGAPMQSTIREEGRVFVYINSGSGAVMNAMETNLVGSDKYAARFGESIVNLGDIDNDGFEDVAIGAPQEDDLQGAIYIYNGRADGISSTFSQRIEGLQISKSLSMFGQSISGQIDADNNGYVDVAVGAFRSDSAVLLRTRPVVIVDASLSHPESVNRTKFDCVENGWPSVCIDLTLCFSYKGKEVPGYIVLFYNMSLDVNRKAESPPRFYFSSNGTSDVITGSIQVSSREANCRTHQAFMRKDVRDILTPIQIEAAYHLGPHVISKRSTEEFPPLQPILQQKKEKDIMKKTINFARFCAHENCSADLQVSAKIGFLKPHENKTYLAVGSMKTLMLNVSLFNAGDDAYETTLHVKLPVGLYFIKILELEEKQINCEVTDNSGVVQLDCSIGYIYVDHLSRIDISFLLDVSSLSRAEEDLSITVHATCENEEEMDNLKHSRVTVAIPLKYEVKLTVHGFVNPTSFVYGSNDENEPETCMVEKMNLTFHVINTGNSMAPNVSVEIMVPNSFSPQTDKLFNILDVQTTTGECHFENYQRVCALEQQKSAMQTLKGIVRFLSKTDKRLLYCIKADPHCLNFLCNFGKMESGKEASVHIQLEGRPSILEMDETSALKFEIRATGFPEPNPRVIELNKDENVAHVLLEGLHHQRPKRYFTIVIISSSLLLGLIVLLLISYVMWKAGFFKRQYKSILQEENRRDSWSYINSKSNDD
Sequence (P26010 20-798): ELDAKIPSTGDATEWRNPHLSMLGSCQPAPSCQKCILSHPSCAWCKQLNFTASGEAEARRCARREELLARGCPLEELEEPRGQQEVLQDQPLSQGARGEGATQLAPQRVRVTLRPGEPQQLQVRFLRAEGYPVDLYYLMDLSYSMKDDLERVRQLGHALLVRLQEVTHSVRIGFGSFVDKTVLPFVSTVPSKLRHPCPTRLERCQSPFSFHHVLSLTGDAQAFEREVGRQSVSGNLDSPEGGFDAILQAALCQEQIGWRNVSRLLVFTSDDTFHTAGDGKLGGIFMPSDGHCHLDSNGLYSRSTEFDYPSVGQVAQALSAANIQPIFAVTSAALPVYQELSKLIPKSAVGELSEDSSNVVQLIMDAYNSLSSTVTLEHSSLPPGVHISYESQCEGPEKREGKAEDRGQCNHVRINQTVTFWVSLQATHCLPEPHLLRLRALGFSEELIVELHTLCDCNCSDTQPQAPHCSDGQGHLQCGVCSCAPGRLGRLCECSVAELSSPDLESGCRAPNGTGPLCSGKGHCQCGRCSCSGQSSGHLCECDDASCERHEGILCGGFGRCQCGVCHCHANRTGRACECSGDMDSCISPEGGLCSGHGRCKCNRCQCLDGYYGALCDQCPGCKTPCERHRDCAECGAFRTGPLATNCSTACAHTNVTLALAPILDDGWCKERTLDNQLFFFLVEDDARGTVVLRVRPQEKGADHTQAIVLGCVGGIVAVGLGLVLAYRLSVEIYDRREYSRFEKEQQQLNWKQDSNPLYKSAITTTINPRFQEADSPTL
assay.protocol: Cell adhesion assay, RPMI8866 cells on MAdCAM coated plates (Example 7)
Type: cell-based
settings: RPMI8866 cells adhering to recombinant human MAdCAM; Table 4 comparative compounds; read-out: CA Assay (Example 7)
pIC50: −log10 of the molar value.

Field: example entries. Status: answers known.
[[record]]
compound = "Cc1cccc(C)c1-c1cccc([C@H](CC(=O)O)NC(=O)[C@H](CC(C)C)n2cc(CN3CC(F)C3)ccc2=O)c1 [drawing 604]"
measurement_name = "pIC50"
value = "< 7.30"

[[record]]
compound = "Cc1cccc(C)c1-c1cncc([C@H](CC(=O)O)NC(=O)[C@H](CC(C)C)n2ccccc2=O)c1"
measurement_name = "pIC50"
value = "< 7.00"

[[record]]
compound = "COc1cccc(F)c1-c1cccc([C@H](CC(=O)O)NC(=O)[C@H](CC(C)C)n2cnc3ccccc3c2=O)c1"
measurement_name = "pIC50"
value = "< 6.30"

[[record]]
compound = "CC(C)C[C@@H](C(=O)N[C@@H](CC(=O)O)c1ccc(-c2ccccc2)cc1)n1cc(CCN2CC(F)C2)cc(F)c1=O"
measurement_name = "pIC50"
value = "< 6.30"

[[record]]
compound = "Cc1cccc(C)c1-c1cccc([C@H](CC(=O)O)NC(=O)[C@H](CC(C)C)n2cc(CN3CC(F)C3)ccc2=O)c1 [drawing 585]"
measurement_name = "pIC50"
value = "< 7.30"

[[record]]
compound = "Cc1ccccc1-c1cccc([C@H](CC(=O)O)NC(=O)[C@H](CC(C)C)n2cccc(C)c2=O)c1"
measurement_name = "pIC50"
value = "< 6.30"

[[record]]
compound = "Cc1cccc(C)c1-c1cccc([C@H](CC(=O)O)NC(=O)[C@H](CC(C)C)n2cc(CN3CC(F)C3)ccc2=O)c1 [drawing 589]"
measurement_name = "pIC50"
value = "< 7.30"

[[record]]
compound = "Cc1cccc(C)c1-c1cccc([C@H](CC(=O)O)NC(=O)[C@H](CC(C)C)n2cccc(CCN(C)C)c2=O)c1"
measurement_name = "pIC50"
value = "< 7.00"

[[record]]
compound = "Cc1cccc(C)c1-c1cncc([C@H](CC(=O)O)NC(=O)[C@H](CC(C)C)N2CC[C@@H](C(F)(F)F)CC2=O)c1"
measurement_name = "pIC50"
value = "< 7.30"

[[record]]
compound = "Cc1ccn([C@@H](CC(C)C)C(=O)N[C@@H](CC(=O)O)c2cncc(-c3c(C)cccc3C)c2)c(=O)c1"
measurement_name = "pIC50"
value = "7.30 to 8.00"


Sample Cc1ccccc1-c1cc([C@H](CC(=O)O)NC(=O)C(CC(C)C)n2ccccc2=O)ccn1 (stereo partly drawn) — what was its pIC50?
< 6.30

Reported pIC50, compound Cc1cccc(C)c1-c1cccc([C@H](CC(=O)O)NC(=O)[C@H](CC(C)C)n2cc(CN3CC(F)C3)ccc2=O)c1 [drawing 577] : ____
< 7.30

State the recorded pIC50 for this entry: `Cc1cccc(C)c1-c1cncc([C@H](CC(=O)O)NC(=O)[C@H](CC(C)C)n2cc(CN3CC(F)C3)ccc2=O)c1`
< 7.30

Can you share its pIC50? I mean this compound: `Cc1cccc(C)c1-c1cccc([C@H](CC(=O)O)NC(=O)[C@H](CC(C)C)n2cc(CCN(C)C)ccc2=O)c1`
8.00 to 8.30

So what's the measured pIC50 for this one? `Cc1ccccc1-c1cccc([C@H](CC(=O)O)NC(=O)[C@H](CC(C)C)n2ccncc2=O)c1`
< 6.30

###

Some compounds, each annotated with its measured IC50.
target: α4β7 (Homo sapiens, UniProt P13612+P26010)
Construct: endogenous in cells; host or cells: RPMI 8866 cells
assay.protocol: Cell-based MAdCAM-1 ligand binding assay (LBA) on RPMI 8866 cells (Example 6)
settings: MAdCAM-1-Fc Dylight 650, 3 mM manganese chloride, flow cytometry, Table 3, read-out: LB Assay (Example 6)

Which IC50 reading was recorded for the compound COc1ccc(C)c(-c2cc(C)c(F)c([C@H](CC(=O)O)NC(=O)C(CC(C)C)n3cc(CCN4CCC4)c(C(F)(F)F)cc3=O)c2)c1C (single isomer, unassigned) [AG-P2] ?
< 10 nM

Look up IC50 for this compound: Cc1cc(-c2c(C)cccc2C)cc([C@H](CC(=O)O)NC(=O)C(CC(C)C)n2cc(CCN3CC[C@@H](F)C3)cc(F)c2=O)c1F (single isomer, unassigned) [AU-P2]
< 10 nM

Param item = Cc1cc(-c2c(C)ccc(F)c2C)cc([C@H](CC(=O)O)NC(=O)C(CC(C)C)n2cc(CCN3CCC3)c(C(F)(F)F)cc2=O)c1F (single isomer, unassigned) [AF-P2] ; retrieve measured IC50.
< 10 nM

###

target: integrin α4β7 (Homo sapiens, UniProt P13612+P26010)
Sequence (P13612 35-977 limits assumed): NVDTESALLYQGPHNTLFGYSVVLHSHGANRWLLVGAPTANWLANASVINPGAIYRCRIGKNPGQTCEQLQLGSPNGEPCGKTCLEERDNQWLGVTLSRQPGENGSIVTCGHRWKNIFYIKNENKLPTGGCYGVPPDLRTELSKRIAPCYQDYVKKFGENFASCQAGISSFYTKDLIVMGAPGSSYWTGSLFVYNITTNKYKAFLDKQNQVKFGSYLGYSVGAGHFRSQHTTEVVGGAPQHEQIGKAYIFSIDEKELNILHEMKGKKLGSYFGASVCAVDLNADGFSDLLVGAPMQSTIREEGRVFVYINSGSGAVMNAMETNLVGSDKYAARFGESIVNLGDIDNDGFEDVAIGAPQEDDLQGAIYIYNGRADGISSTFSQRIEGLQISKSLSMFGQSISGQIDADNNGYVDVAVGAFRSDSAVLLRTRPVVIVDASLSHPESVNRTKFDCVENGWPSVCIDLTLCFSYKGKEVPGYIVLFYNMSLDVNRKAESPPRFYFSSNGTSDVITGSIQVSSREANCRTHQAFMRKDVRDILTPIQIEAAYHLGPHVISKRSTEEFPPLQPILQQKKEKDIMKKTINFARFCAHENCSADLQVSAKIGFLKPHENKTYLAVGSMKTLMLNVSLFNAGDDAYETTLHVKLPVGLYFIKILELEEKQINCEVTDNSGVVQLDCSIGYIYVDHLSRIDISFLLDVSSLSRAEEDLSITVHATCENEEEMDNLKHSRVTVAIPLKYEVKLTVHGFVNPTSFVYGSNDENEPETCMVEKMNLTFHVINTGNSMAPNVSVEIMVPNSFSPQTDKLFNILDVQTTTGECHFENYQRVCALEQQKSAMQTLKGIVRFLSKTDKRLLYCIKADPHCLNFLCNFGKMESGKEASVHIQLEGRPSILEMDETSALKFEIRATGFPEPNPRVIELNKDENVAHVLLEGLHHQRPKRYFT
Sequence (P26010 20-723 limits assumed): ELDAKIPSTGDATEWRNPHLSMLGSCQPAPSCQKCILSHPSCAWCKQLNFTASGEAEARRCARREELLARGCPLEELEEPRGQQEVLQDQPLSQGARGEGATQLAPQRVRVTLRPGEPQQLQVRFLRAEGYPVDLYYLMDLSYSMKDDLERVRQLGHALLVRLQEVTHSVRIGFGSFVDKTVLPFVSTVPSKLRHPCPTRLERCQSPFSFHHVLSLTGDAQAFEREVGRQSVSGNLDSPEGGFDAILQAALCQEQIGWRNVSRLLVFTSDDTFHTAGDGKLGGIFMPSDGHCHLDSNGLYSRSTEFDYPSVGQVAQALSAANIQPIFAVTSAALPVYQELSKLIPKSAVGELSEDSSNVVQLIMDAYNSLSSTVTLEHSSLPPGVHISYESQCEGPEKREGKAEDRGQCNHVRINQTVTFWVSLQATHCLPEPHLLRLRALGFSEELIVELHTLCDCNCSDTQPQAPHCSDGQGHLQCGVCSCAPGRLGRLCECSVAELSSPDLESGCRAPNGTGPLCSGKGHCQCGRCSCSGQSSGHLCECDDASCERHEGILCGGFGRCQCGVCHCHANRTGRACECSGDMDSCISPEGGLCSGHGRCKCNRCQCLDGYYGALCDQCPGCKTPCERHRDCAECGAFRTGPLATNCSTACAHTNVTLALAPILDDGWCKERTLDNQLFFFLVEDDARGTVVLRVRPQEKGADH
assay.protocol: Fluorescence polarization (FP) assay for α4β7 binding (Example 5)
settings: competition with fluorescein-labeled peptide, 6.5 nM integrin α4β7, 2 mM manganese chloride; Table 4 comparative compounds
pIC50: −log10 of the molar value.
measurement.name: pIC50

[[record]]
molecule = "Cc1ccccc1-c1cccc([C@H](CC(=O)O)NC(=O)[C@H](CC(C)C)n2ccccc2=O)c1"
value = "6.30 to 8.00"

[[record]]
molecule = "Cc1cccc(C)c1-c1cncc([C@H](CC(=O)O)NC(=O)[C@@H](CC(C)C)n2ccccc2=O)c1"
value = "6.30 to 8.00"

[[record]]
molecule = "COc1cccc(F)c1-c1cccc([C@H](CC(=O)O)NC(=O)[C@H](CC(C)C)n2cnc3ccccc3c2=O)c1"
value = "6.30 to 8.00"

[[record]]
molecule = "COc1ccc([C@H](CC(=O)O)NC(=O)C(CC(C)C)n2ccccc2=O)cc1-c1ccccc1C (stereo partly drawn)"
value = "6.30 to 8.00"

[[record]]
molecule = "CC(C)C[C@@H](C(=O)N[C@@H](CC(=O)O)c1ccc(-c2ccc(F)cc2)cc1)n1cc(CCN(C)C)c(C(F)(F)F)cc1=O"
value = "≥ 8.00"

[[record]]
molecule = "Cc1cccc(C)c1-c1cccc([C@H](CC(=O)O)NC(=O)[C@H](CC(C)C)n2cc(CCN(C)C)ccc2=O)c1"
value = "≥ 8.00"

[[record]]
molecule = "Cc1ccc([C@@H](C(=O)N[C@@H](CC(=O)O)c2cncc(-c3c(C)cccc3C)c2)N2CC(C)CCC2=O)cc1 (stereo partly drawn)"
value = "≥ 8.00"

[[record]]
molecule = "Cc1cccc(C)c1-c1cncc([C@@H](CC(=O)O)NC(=O)[C@@H](CC(C)C)n2ccccc2=O)c1"
value = "< 6.30"

[[record]]
molecule = "CC(C)C[C@@H](C(=O)N[C@@H](CC(=O)O)c1ccc(-c2ccccc2)cc1)n1cc(CCN(C)C)c(C(F)(F)F)cc1=O"
value = "6.30 to 8.00"

[[record]]
molecule = "COC[C@@H](C(=O)N[C@@H](CC(=O)O)c1cccc(-c2c(C)cccc2C)c1)n1ccc(C)cc1=O"
value = "6.30 to 8.00"


Can you look up pIC50 on integrin α4β7 (Homo sapiens, UniProt P13612+P26010) for `Cc1cccc(C)c1-c1cncc([C@H](CC(=O)O)NC(=O)[C@H](CC(C)C)N2CC[C@@H](C(F)(F)F)CC2=O)c1` ?
≥ 8.00

Find pIC50 (integrin α4β7 (Homo sapiens, UniProt P13612+P26010)) for the entry Cc1cccc(C)c1-c1cccc([C@H](CC(=O)O)NC(=O)[C@H](CC(C)C)n2cc(CN3CC(F)C3)ccc2=O)c1 [drawing 585]
≥ 8.00

###

target: α4β7 (Homo sapiens, UniProt P13612+P26010)
Construct: endogenous in cells; host or cells: RPMI 8866 cells
assay.protocol: Cell adhesion assay, RPMI8866 cells on MAdCAM coated plates (Example 7)
Assay type: cell-based
settings: RPMI8866 cells adhering to recombinant human MAdCAM; Table 4 comparative compounds; read-out: CA Assay (Example 7)
pIC50: −log10 of the molar value.
# pIC50 per entry

[[record]]
compound = "Cc1cccc(C)c1-c1cccc([C@H](CC(=O)O)NC(=O)[C@H](CC(C)C)n2cc(CN3CC(F)C3)ccc2=O)c1 [drawing 599]"
target = "α4β7 (Homo sapiens, UniProt P13612+P26010)"
measurement_name = "pIC50"
value = "> 8.30"


What is its pIC50 for α4β7 (Homo sapiens, UniProt P13612+P26010)? Entry: `Cc1ccccc1-c1cc([C@H](CC(=O)O)NC(=O)[C@H](CC(C)C)n2ccccc2=O)ccc1C`
< 6.30

Identify the measured pIC50 of `Cc1cccc(C)c1-c1cncc([C@H](CC(=O)O)NC(=O)[C@H](CC(C)C)n2ccc(C(F)(F)F)cc2=O)c1` for α4β7 (Homo sapiens, UniProt P13612+P26010).
7.30 to 8.00
